I'd appreciate it if you could supply viability, T/C values for the items below.
- System: 596521-263-R-J1-PDC complex spheroids, viability % of control
- measurement.notes: Anticancer human tumor 596521-263-R-J1-PDC patient-derived soft tissue sarcoma cell line growth inhibition [GQUAD]
- condition.info: second compound 0.1 µM; first compound 0.1 µM; stronger effect = lower value

Examples with answers:
Cc1cccc(N(C)C(=O)C2C(O)CCN2c2nc(C)cc(C(F)(F)F)c2C#N)c1 (stereo not drawn) + Cc1cnc(CNC(=O)c2c(=O)c3ccc(N4CCCN(C)CC4)nc3n3c2sc2ccccc23)cn1: 87%
COc1cc(C2c3cc4c(cc3C(OC3OC5COC(C)OC5C(O)C3O)C3COC(=O)C23)OCO4)cc(OC)c1O (stereo not drawn) + CN(C)c1ccc(Nc2c3ccc(NC(=O)CCN4CCCC4)cc3nc3cc(NC(=O)CCN4CCCC4)ccc23)cc1: 96.6%

Turning now to a further compound:
Exercise: Endpoint output: viability, T/C of CC1COCCN1c1cc(-c2ccnn2C)c2ccnc(-c3ccn[nH]3)c2n1 (stereo not drawn) + Cc1[nH]c2ccc(F)cc2c1-c1nc2c3cccnc3c3ncccc3c2[nH]1 . Value?
Solution: 69.5%

* * *

- Test system: 596521-263-R-J1-PDC complex spheroids, viability % of control
- measurement.notes: Anticancer human tumor 596521-263-R-J1-PDC cell line growth inhibition [GQUAD];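 also: spheroids exposed to drugs for 7 days before viability reading; 100% = DMSO vehicle control viability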
- condition.info: second compound 0.316 µM; first compound 0.316 µM; stronger effect = lower value
experimental.readout: viability, T/C

Example compounds with recorded viability, T/C:
COc1ncnc(C2CC2)c1-c1ncc2cnn(Cc3ccc(-c4nc(C(F)(F)F)cn4C(C)C)cc3)c2n1 + Cc1cnc(CNC(=O)c2c(=O)c3ccc(N4CCCN(C)CC4)nc3n3c2sc2ccccc23)cn1: 67.9%
CC1COCCN1c1cc(C2(O)CC3CCC(C2)O3)c2cnn(-c3ccn[nH]3)c2n1 (stereo not given) + Cc1[nH]c2ccc(F)cc2c1-c1nc2c3cccnc3c3ncccc3c2[nH]1: 48.8%

Fill in viability, T/C for each of the 2 compounds listed.
1. Cc1cccc(N(C)C(=O)C2C(O)CCN2c2nc(C)cc(C(F)(F)F)c2C#N)c1 (stereo not given) + Cc1cnc(CNC(=O)c2c(=O)c3ccc(N4CCCN(C)CC4)nc3n3c2sc2ccccc23)cn1
2. Nc1ccn(C2OC(CO)C(O)C2(F)F)c(=O)n1 (stereo not given) + Cc1[nH]c2ccc(F)cc2c1-c1nc2c3cccnc3c3ncccc3c2[nH]1

Solution:
81.7%
36.4%

Exercise: Find the recorded viability, T/C belonging to CC(=O)O[C@H]1C(=O)[C@@]2(C)[C@H]([C@H](OC(=O)c3ccccc3)[C@]3(O)C[C@H](OC(=O)[C@H](O)[C@@H](NC(=O)c4ccccc4)c4ccccc4)C(C)=C1C3(C)C)[C@]1(OC(C)=O)CO[C@@H]1C[C@@H]2O + Cc1[nH]c2ccc(F)cc2c1-c1nc2c3cccnc3c3ncccc3c2[nH]1 and report it.
Solution: 30.8%

* * *

Record form. Attribute: viability, T/C. Fill in for each entry.
- System: 596521-263-R-J1-PDC complex spheroids, viability % of control
- measurement.notes: Anticancer human tumor 596521-263-R-J1-PDC cell line growth inhibition [GQUAD];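 also: spheroids exposed to drugs for 7 days before viability reading; 100% = DMSO vehicle control viability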
- condition.info: second compound 3.16 µM; first compound 3.16 µM; stronger effect = lower value
One number for each entry, in %.

Use these answered entries as a reference point.
Cc1cccc(N(C)C(=O)C2C(O)CCN2c2nc(C)cc(C(F)(F)F)c2C#N)c1 (stereo not given) + CN(C)c1ccc(Nc2c3ccc(NC(=O)CCN4CCCC4)cc3nc3cc(NC(=O)CCN4CCCC4)ccc23)cc1: 85.9
C=CCn1c(=O)c2cnc(Nc3ccc(N4CCN(C)CC4)cc3)nc2n1-c1cccc(C(C)(C)O)n1 + CN(C)c1ccc(Nc2c3ccc(NC(=O)CCN4CCCC4)cc3nc3cc(NC(=O)CCN4CCCC4)ccc23)cc1: 38.2
C#Cc1c(F)ccc2cc(O)cc(-c3ncc4c(N5CC6CCC(C5)N6)nc(OCC56CCCN5CC(F)C6)nc4c3F)c12 (stereo not given) + Cc1[nH]c2ccc(F)cc2c1-c1nc2c3cccnc3c3ncccc3c2[nH]1: 31.6
C=CC(=O)N1CCN(c2nc(=O)n(-c3c(C)ccnc3C(C)C)c3nc(-c4c(O)cccc4F)c(F)cc23)C(C)C1 (stereo not given) + Cc1cnc(CNC(=O)c2c(=O)c3ccc(N4CCCN(C)CC4)nc3n3c2sc2ccccc23)cn1: 81.4
Cc1cccc(N(C)C(=O)C2C(O)CCN2c2nc(C)cc(C(F)(F)F)c2C#N)c1 (stereo not given) + Cc1cnc(CNC(=O)c2c(=O)c3ccc(N4CCCN(C)CC4)nc3n3c2sc2ccccc23)cn1: 59
COc1ncnc(C2CC2)c1-c1ncc2cnn(Cc3ccc(-c4nc(C(F)(F)F)cn4C(C)C)cc3)c2n1 + Cc1cnc(CNC(=O)c2c(=O)c3ccc(N4CCCN(C)CC4)nc3n3c2sc2ccccc23)cn1: 59.8
O=c1[nH]cc(F)c(=O)[nH]1 + Cc1cnc(CNC(=O)c2c(=O)c3ccc(N4CCCN(C)CC4)nc3n3c2sc2ccccc23)cn1: 63.2
O=C(NO)c1cnc(N2CCN(S(=O)(=O)c3ccc4ccccc4c3)CC2)nc1 + Cc1[nH]c2ccc(F)cc2c1-c1nc2c3cccnc3c3ncccc3c2[nH]1: 26.1

Lab note: each compound below needs its viability, T/C filled in.
1. CC1COCCN1c1cc(-c2ccnn2C)c2ccnc(-c3ccn[nH]3)c2n1 (stereo not given) + CN(C)c1ccc(Nc2c3ccc(NC(=O)CCN4CCCC4)cc3nc3cc(NC(=O)CCN4CCCC4)ccc23)cc1
2. CC1COCCN1c1cc(C2(O)CC3CCC(C2)O3)c2cnn(-c3ccn[nH]3)c2n1 (stereo not given) + Cc1[nH]c2ccc(F)cc2c1-c1nc2c3cccnc3c3ncccc3c2[nH]1

Solution:
31.1
26

* * *

- Tested on: 596521-263-R-J1-PDC complex spheroids, viability % of control
- measurement.notes: Anticancer human tumor 596521-263-R-J1-PDC cell line growth inhibition [GQUAD];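 also: spheroids exposed to drugs for 7 days before viability reading; 100% = DMSO vehicle control viability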
- condition.info: second compound 0.1 µM; first compound 0.1 µM; stronger effect = lower value
experimental.readout: viability, T/C (%)
One number for each entry, in %.

Hi! Can you tell me viability, T/C for each of these compounds?
1. CCCS(=O)(=O)Nc1ccc(F)c(C(=O)c2c[nH]c3ncc(-c4ccc(Cl)cc4)cc23)c1F + CN(C)c1ccc(Nc2c3ccc(NC(=O)CCN4CCCC4)cc3nc3cc(NC(=O)CCN4CCCC4)ccc23)cc1
2. COc1ncnc(C2CC2)c1-c1ncc2cnn(Cc3ccc(-c4nc(C(F)(F)F)cn4C(C)C)cc3)c2n1 + Cc1[nH]c2ccc(F)cc2c1-c1nc2c3cccnc3c3ncccc3c2[nH]1

Solution:
1. 88.9
2. 90.4

Would you mind listing viability, T/C for each of the following compounds?
1. Nc1ccn(C2OC(CO)C(O)C2(F)F)c(=O)n1 (centres undefined) + CN(C)c1ccc(Nc2c3ccc(NC(=O)CCN4CCCC4)cc3nc3cc(NC(=O)CCN4CCCC4)ccc23)cc1
2. C=CCn1c(=O)c2cnc(Nc3ccc(N4CCN(C)CC4)cc3)nc2n1-c1cccc(C(C)(C)O)n1 + Cc1[nH]c2ccc(F)cc2c1-c1nc2c3cccnc3c3ncccc3c2[nH]1

Solution:
[42.2, 91.6]

* * *

- System: 596521-263-R-J1-PDC complex spheroids, viability % of control
- measurement.notes: Anticancer human tumor 596521-263-R-J1-PDC cell line growth inhibition [GQUAD];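 also: spheroids exposed to drugs for 7 days before viability reading; 100% = DMSO vehicle control viability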
- condition.info: second compound 0.0316 µM; first compound 0.0316 µM; stronger effect = lower value
experimental.readout: viability, T/C (%)
Answers are plain numbers, in %.

Reference set, count: 5
Cn1ncnc1[C@H]1c2n[nH]c(=O)c3cc(F)cc(c23)N[C@@H]1c1ccc(F)cc1 + CN(C)c1ccc(Nc2c3ccc(NC(=O)CCN4CCCC4)cc3nc3cc(NC(=O)CCN4CCCC4)ccc23)cc1: 84.8
O=c1[nH]cc(F)c(=O)[nH]1 + CN(C)c1ccc(Nc2c3ccc(NC(=O)CCN4CCCC4)cc3nc3cc(NC(=O)CCN4CCCC4)ccc23)cc1: 111
C=CCn1c(=O)c2cnc(Nc3ccc(N4CCN(C)CC4)cc3)nc2n1-c1cccc(C(C)(C)O)n1 + Cc1[nH]c2ccc(F)cc2c1-c1nc2c3cccnc3c3ncccc3c2[nH]1: 99.1
C=CCn1c(=O)c2cnc(Nc3ccc(N4CCN(C)CC4)cc3)nc2n1-c1cccc(C(C)(C)O)n1 + Cc1cnc(CNC(=O)c2c(=O)c3ccc(N4CCCN(C)CC4)nc3n3c2sc2ccccc23)cn1: 88.4
COc1ccc([C@@H](O)c2cc(-c3ncnc4cc(N5CCOCC5)ccc34)c(F)cc2Cl)nn1 + Cc1[nH]c2ccc(F)cc2c1-c1nc2c3cccnc3c3ncccc3c2[nH]1: 96.5

With those in mind, consider the next molecule.
Exercise: Fill blank: measured viability, T/C of the molecule O=C(NO)c1cnc(N2CCN(S(=O)(=O)c3ccc4ccccc4c3)CC2)nc1 + Cc1cnc(CNC(=O)c2c(=O)c3ccc(N4CCCN(C)CC4)nc3n3c2sc2ccccc23)cn1 is ____.
Solution: 74.7

Each recorded value in this set is attributed to PubChem BioAssay AID2060500.
